Where these numbers come from: ChEMBL document CHEMBL3525971

Experimental Protocol: Terminal half life in castrated pig plasma withdrawn from portal vein at 0.8 mg/kg administered as intrajejunal dose 20 mins after ketoconazole administration by UPLC-tandem mass spectrometry
Assay type: ADME, organism-based, Sus scrofa
Design: dose 0.8 mg/kg
Test Settings: male, read-out: beta t1/2 (converted)
Measured Attribute: half-life (h)
The figure you give is taken to be in h; do not add the unit.

Which half-life is listed for CC(C)(C)NC(=O)[C@H]1CC[C@H]2[C@@H]3CC[C@H]4NC(=O)C=C[C@]4(C)[C@H]3CC[C@]12C [FINASTERIDE] ?
3.9

----------
Experimental Protocol: Total plasma clearance in human
Format: ADME, organism-based
Measured Attribute: clearance

Item CC(C)(C)NC(=O)[C@H]1CC[C@H]2[C@@H]3CC[C@H]4NC(=O)C=C[C@]4(C)[C@H]3CC[C@]12C [FINASTERIDE] has what recorded clearance?
2.33 mL/min/kg

----------
Experimental Protocol: Cmax in castrated pig plasma withdrawn from portal vein at 0.8 mg/kg administered as intrajejunal dose 20 mins after ketoconazole administration by UPLC-tandem mass spectrometry
Assay type: ADME, organism-based, Sus scrofa
Design: dose 0.8 mg/kg
Test Settings: male
Measured Attribute: Cmax (µM)
// return numeric value only (unit: µM, not printed)

Return reported Cmax; argument: CC(C)(C)NC(=O)[C@H]1CC[C@H]2[C@@H]3CC[C@H]4NC(=O)C=C[C@]4(C)[C@H]3CC[C@]12C [FINASTERIDE]
3.1

----------
Experimental Protocol: Renal clearance in castrated pig at 0.8 mg/kg, administered as intrajejunal dose 20 mins after ketoconazole administration by UPLC-tandem mass spectrometry
Format: ADME, organism-based, Sus scrofa, Kidney
Set-up: dose 0.8 mg/kg
Test Settings: male, in vivo
Measured Attribute: CL renal at 20 min (mL/day/kg)
Numeric only. Scale: mL/day/kg

// returns reported CL renal at 20 min for input CC(C)(C)NC(=O)[C@H]1CC[C@H]2[C@@H]3CC[C@H]4NC(=O)C=C[C@]4(C)[C@H]3CC[C@]12C [FINASTERIDE]
8.64
